Hello, the source for this data is patent US11753371B2, in case you need it.

- tested-system: UniProtKB P00352
- Sequence (P00352 whole entry): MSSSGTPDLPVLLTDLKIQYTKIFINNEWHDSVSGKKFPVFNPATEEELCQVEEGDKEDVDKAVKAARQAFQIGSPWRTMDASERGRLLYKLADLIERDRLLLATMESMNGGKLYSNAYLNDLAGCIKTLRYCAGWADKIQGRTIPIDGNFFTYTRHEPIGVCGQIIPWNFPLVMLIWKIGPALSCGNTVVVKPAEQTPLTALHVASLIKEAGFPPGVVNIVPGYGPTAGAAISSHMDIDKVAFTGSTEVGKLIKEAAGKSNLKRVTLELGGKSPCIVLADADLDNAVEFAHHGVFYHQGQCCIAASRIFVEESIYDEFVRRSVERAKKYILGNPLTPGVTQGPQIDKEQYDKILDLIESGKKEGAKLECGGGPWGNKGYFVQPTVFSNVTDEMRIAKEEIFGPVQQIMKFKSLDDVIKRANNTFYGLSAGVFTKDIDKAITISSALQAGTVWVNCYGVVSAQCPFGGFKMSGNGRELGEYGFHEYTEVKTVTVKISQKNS
- procedure-details: ALDH assay (diaphorase/resazurin), ALDH1a1 inhibition
- Type: biochemical
- condition-label: Table I; mean of at least two independent experiments; read-out: IC50 (μM) ± SE (ALDH1a1)
metric-name: IC50 (µM)
Give just the number in µM; leave the unit off.

Field request: IC50 | item: `CCN(C)C(=S)SSC(=S)N(C)CC`
0.02

* * *

- tested-system: ALDH2 (Homo sapiens (Human))
- Sequence (P05091 18-517): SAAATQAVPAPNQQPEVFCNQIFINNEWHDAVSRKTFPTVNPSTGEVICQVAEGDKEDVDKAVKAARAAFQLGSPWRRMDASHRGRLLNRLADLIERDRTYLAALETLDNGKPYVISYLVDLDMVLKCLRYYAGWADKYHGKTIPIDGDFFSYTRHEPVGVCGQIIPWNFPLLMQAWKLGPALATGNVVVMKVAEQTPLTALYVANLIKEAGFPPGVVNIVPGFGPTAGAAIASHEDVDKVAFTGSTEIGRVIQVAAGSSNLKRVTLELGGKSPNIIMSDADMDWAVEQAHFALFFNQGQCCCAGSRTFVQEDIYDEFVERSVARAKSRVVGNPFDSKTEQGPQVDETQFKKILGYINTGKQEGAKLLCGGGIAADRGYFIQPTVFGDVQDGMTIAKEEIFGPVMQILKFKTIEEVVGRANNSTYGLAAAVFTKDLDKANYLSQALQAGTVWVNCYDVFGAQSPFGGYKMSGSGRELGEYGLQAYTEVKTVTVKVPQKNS
- procedure-details: ALDH assay (diaphorase/resazurin), ALDH2 inhibition
- Type: biochemical
- condition-label: Table I; mean of at least two independent experiments; read-out: IC50 (μM) ± SE (ALDH2)
metric-name: IC50 (µM)
Give the value, in units of µM, as a plain number.

Tell me the measured IC50 of `CCN(C)C(=S)SSC(=S)N(C)CC` , please.
0.32
